All figures here come from ChEMBL document CHEMBL4513216.

- System: Plasmodium berghei
- Protocol Notes: Screen against P. berghei liver stage (PbLuc), transformed with Luciferase, at 10uM
- Type: functional, HepG2
- Run Parameters: tested at 10 uM
Among all 69,000 compounds or so, about 8,600 (12%) showed an effect of 50% or more. Many of the other results were omitted from the sample, so strong results are more common in it than they were.
# if value of INHIBITION reaches 40%, tag label 1; if it stays below, tag label 0

Some solved entries appear below for comparison.
>>> df
                                   molecule  category
0  c1nnc(Nc2cncc(C3CCCN3)n2)s1 (stereo unspecified)   label 0
1  Cc1cc(N2CCC3(CCCN(CCO)C3=O)C2)nc2cc(Cl)ccc12 (stereo unspecified)   label 0
2  COCc1nc(C(=O)N2CCCC(n3ccnc3C(C)C)C2)cs1 (stereo unspecified)   label 0
3  O=C(NCC1CC1)C1CSCN1S(=O)(=O)c1ccccc1 (stereo unspecified)   label 0
4    O=C(CN1CCOc2ccccc2C1)NCc1cc2n(n1)CCNC2   label 0

Hi, just wondering whether Cc1cccc(-c2nccn2-c2cccc(CC(=O)O)c2)n1 shows INHIBITION of 40% or higher.
label 0

Consider next the molecule c1ccc2nc(N3CCOC(Cn4cccn4)C3)cnc2c1 (stereo unspecified) in the same way.
label 0

Consider next the molecule O=S1(=O)CCC(S(=O)(=O)c2cccc(S(=O)(=O)N3CCCC3)c2)C1 (stereo unspecified) in the same way.
label 0

Consider next the molecule O=S1(=O)CCC(S(=O)(=O)c2cccc(S(=O)(=O)N3CCOCC3)c2)C1 (stereo unspecified) in the same way.
label 1

Consider next the molecule Cc1cc(N2CCC(CO)(CC3CCCCO3)CC2)c2ccccc2n1 (stereo unspecified) in the same way.
label 1

---

- System: Plasmodium berghei
- Protocol Notes: Screen against P. berghei liver stage (PbLuc), transformed with Luciferase, at 10uM
- Type: functional, HepG2
- Run Parameters: tested at 10 uM
The whole screen tested about 69,000 compounds, of which about 8,600 (12%) showed an effect of 50% or more. This is one part of a sample in which strong results are shown more often than they occur.
Parameter: INHIBITION (%)
Give bare numbers, in %.

As a guide, the following entries are already answered.
>>> df
                                   compound       target_system   parameter  data_value
0          NC(=O)c1nc(COc2ccc3c(c2)OCO3)no1  Plasmodium berghei  INHIBITION       -83.7
1  O=C(Cc1ccsc1)NCC1OCCc2cn(CC3CC3)nc21 (stereo unspecified)  Plasmodium berghei  INHIBITION       -46.6
2  c1ccc(CN2Cc3nccn3CC(Cn3cncn3)C2)nc1 (stereo unspecified)  Plasmodium berghei  INHIBITION       -37.9
3   CCOCCn1nc(C)cc1C(=O)N(C)Cc1cccc2ncccc12  Plasmodium berghei  INHIBITION          36
4  c1cc(-c2ccc3c(c2)CCC32CCN(c3nncs3)CC2)co1  Plasmodium berghei  INHIBITION        24.9

// input: 5 compounds below; output: INHIBITION for each
1. NC(=O)C1CN(C(=O)Nc2ccccc2Oc2ccccc2Cl)CCO1 (stereo unspecified)
2. CCCc1cc(C(=O)N(C)Cc2cccc3ncccc23)n(C)n1
3. CS(=O)(=O)NCC1OCCc2cn(CC3CC3)nc21 (stereo unspecified)
4. CCOc1ncnc2c1CCN(C(=O)CN(C)C)CC2
5. O=S(=O)(NCC1OCCc2cn(CC3CCOCC3)nc21)C1CC1 (stereo unspecified)

-67.7
46.8
44.2
42.3
29.8

// input: 5 compounds below; output: INHIBITION for each
1. O=C(CCC1CCCO1)NCCN1CCCCC1 (stereo unspecified)
2. O=C(c1nc(COc2ccc3c(c2)OCO3)no1)N1CCCC1
3. Cc1nc(NC(=O)OC(C)(C)C)sc1C(=O)O
4. CCN1CCC(CNCc2c[nH]nc2C(C)(C)C)C1 (stereo unspecified)
5. c1cncc(-c2ccc3c(c2)C2(CC3)CCN(c3nncs3)CC2)c1

[52.2, 13.4, 46.6, 11.4, 76.8]

---

- System: Plasmodium berghei
- Protocol Notes: Screen against P. berghei liver stage (PbLuc), transformed with Luciferase, at 10uM
- Type: functional, HepG2
- Run Parameters: tested at 10 uM
Out of some 69,000 compounds screened, about 8,600 (12%) showed an effect of 50% or more. For the sample, strong results were picked, then their nearest neighbours and some compounds at random.
Parameter: INHIBITION (%)
Numbers only, in %.

                                   molecule  data_value
0  O=C(N1CCC(Oc2ccncc2)C1)C1(c2ccc(F)cc2)CC1 (stereo not given)          52

// input: 3 molecules below; output: INHIBITION for each
1. CCc1ncnc2c1CCN(C(=O)c1ccccn1)CC2
2. CCOCC(O)CN1CCN(C(=O)Cc2ccccc2Cl)CC1 (stereo not given)
3. OC(COc1ccccc1Br)COC1CCOCC1 (stereo not given)

1. -0.813
2. 25.6
3. -42.8

// input: 6 molecules below; output: INHIBITION for each
1. Cc1nc(C2CCN(C(C)C)CC2)sc1Br
2. CCN(Cc1ccc(N(C)C)cc1)S(=O)(=O)c1cc(Br)ccc1OC
3. c1ccc(CN2CCCC2)c(CNc2cncc3nnnn23)c1
4. CCOc1ccc(Br)cc1S(=O)(=O)N(CC)Cc1ccc(N(C)C)cc1
5. CCc1nc(CN2CCCN(CC(O)c3ccccc3)CC2)no1 (stereo not given)
6. CC(=O)N1CCOC(c2cncc(CCC(=O)N(C)C)n2)C1 (stereo not given)

[30.4, 7.65, -14.3, 61.5, -11.4, -6.73]

// input: 5 molecules below; output: INHIBITION for each
1. Cc1ccc(OCC2CCCN(C(=O)c3csc(CN(C)C)n3)C2)cc1 (stereo not given)
2. CCn1cc(NC(=O)NCc2ccc3c(c2)OCCO3)cn1
3. CCS(=O)(=O)CCN1CCC(N(C)Cc2noc(C(C)C)n2)C1 (stereo not given)
4. CCN(Cc1ccco1)C(=O)NCC(C)N1CCc2sccc2C1 (stereo not given)
5. CCc1nc(CN2CCN(CC(O)c3ccccc3)CC2)no1 (stereo not given)

[31, 33, 21.2, -3.72, 42]

// input: 3 molecules below; output: INHIBITION for each
1. CCOCC1CN(CCN(C)C)Cc2cnn(CC3CCCC3)c21 (stereo not given)
2. CCc1nc(CN2CCCN(c3nc4ccccc4o3)CC2)no1
3. CCOCC(O)CN1CCN(C(=O)Cc2ccc3c(c2)CCC3)CC1 (stereo not given)

[41.2, -8.19, 51.5]

// input: 2 molecules below; output: INHIBITION for each
1. COc1ccc(F)c(-c2ccnc(N)c2)c1
2. CCCC1c2cccn2CCN1C(=O)Cn1cnc2sc(C)cc2c1=O (stereo not given)

1. 1.95
2. 11.35

// input: 5 molecules below; output: INHIBITION for each
1. CN(C)CCn1c2c(ccc1=O)CCN(C(=O)c1ccoc1)CC2
2. CCCN1C[C@H](NC(=O)c2cccs2)[C@@H](c2ccc(OC)cc2)C1
3. Cc1ccc(OCC(O)COC2CCOCC2)c(Br)c1 (stereo not given)
4. CCn1ccnc1CN1CCN(c2ncnc3ccccc23)CC1
5. CC(=O)N(Cc1noc(C)n1)C1CCN(Cc2cc(C)on2)C1 (stereo not given)

-73.5
31.6
-98.4
-66.4
-6.62

---

- Tested on: Plasmodium berghei
- Protocol Notes: Screen against P. berghei liver stage (PbLuc), transformed with Luciferase, at 10uM
- Assay type: functional, HepG2
- Run Parameters: tested at 10 uM
Among all 69,000 compounds or so, about 8,600 (12%) showed an effect of 50% or more. What follows is part of a selection rich in strong results, with near analogues and random picks from the rest.
Parameter: INHIBITION (%)
Give bare numbers, in %.

As a guide, the following entries are already answered.
                                   compound  data_value
0       O=C1CN(CCS(=O)(=O)c2ccc(Cl)cc2)CCN1          14
1  CCS(=O)(=O)N1CCC2(CC1)CN(c1cncnc1)C(=O)CO2        14.1
2  CC(C)N(C)C(=O)COc1ccc(-c2noc(C3CCCO3)n2)cc1 (stereo not given)       -59.4
3  O=C1COC2(CCN(S(=O)(=O)C3CC3)CC2)CN1c1ccsc1        3.25

Proceed to the following item.
Return reported INHIBITION; argument: O=C(CCn1cccn1)N1CCC(c2nnc(-c3ccsc3)o2)CC1
5.86
